- protocol-text: Stability in liver microsomes
- Assay type: in vitro ADME, human
- test-settings: human, microsomes; 2 μM, 37° C.; read-out: half-life (t1/2) in liver microsomes
Where a SMILES comes first, the peptide text is derived from it. [ ]: non-standard residue; d: D form. ξ: configuration not given here. ξαMeBip(2'-Et,4'-OMe) = CCc1cc(OC)ccc1-c1ccc(CC(C)(N)C(=O)O)cc1; ξBip(2'-Et-4'-OMe) = CCc1cc(OC)ccc1-c1ccc(CC(N)C(=O)O)cc1; ξαMePhe(2,6-F2) = CC(N)(Cc1c(F)cccc1F)C(=O)O; ξαMe(hhPhe) = CC(N)(CCCc1ccccc1)C(=O)O; ξαMePhe(2-F) = CC(N)(Cc1ccccc1F)C(=O)O; ξhhPhe = NC(CCCc1ccccc1)C(=O)O; ξαMeD = CC(N)(CC(=O)O)C(=O)O; ξαMeP = CC1(C(=O)O)CCCN1; ξαMeS = CC(N)(CO)C(=O)O; Aib = CC(C)(N)C(=O)O
Provide the reported half-life of each item.
One number for each entry, in h.

Before answering, review these 4 worked examples.
molecule	property-label	measurement
CCc1cc(OC)ccc1-c1ccc(CC(C)(NC(=O)C(C)(CC(=O)O)NC(=O)[C@H](CO)NC(=O)[C@@H](NC(=O)C(C)(Cc2c(F)cccc2F)NC(=O)[C@@H](NC(=O)CNC(=O)[C@H](CCC(N)=O)NC(=O)C(C)(C)NC(=O)[C@H](Cc2c[nH]cn2)NC(=O)[C@@H](N)C(C)C)[C@@H](C)O)[C@@H](C)O)C(=O)NC(CCCc2ccccc2)C(N)=O)cc1 (stereo partly drawn) [compound 75] (H-VH[Aib]QGT[ξαMePhe(2,6-F2)]TS[ξαMeD][ξαMeBip(2'-Et,4'-OMe)][ξhhPhe]-NH2)	half-life	1
CCc1cc(OC)ccc1-c1ccc(CC(C)(NC(=O)[C@H](CC(=O)O)NC(=O)[C@H](CO)NC(=O)[C@@H](NC(=O)C(C)(Cc2c(F)cccc2F)NC(=O)[C@@H](NC(=O)CNC(=O)[C@H](CCC(=O)O)NC(=O)C(C)(C)NC(=O)[C@H](Cc2c[nH]cn2)NC(=O)[C@@H](N)C(C)C)[C@@H](C)O)[C@@H](C)O)C(=O)NC(CCCc2ccccc2)C(N)=O)cc1 (stereo partly drawn) [compound 31] (H-VH[Aib]EGT[ξαMePhe(2,6-F2)]TSD[ξαMeBip(2'-Et,4'-OMe)][ξhhPhe]-NH2)	half-life	1
CCc1cc(OC)ccc1-c1ccc(CC(NC(=O)[C@H](CC(=O)O)NC(=O)[C@H](CO)NC(=O)[C@@H](NC(=O)C(C)(Cc2ccccc2F)NC(=O)[C@@H](NC(=O)CNC(=O)[C@H](CCC(N)=O)NC(=O)[C@H](C)NC(=O)[C@H](Cc2c[nH]cn2)NC(=O)[C@@H](N)C(C)C)[C@@H](C)O)[C@@H](C)O)C(=O)NC(C)(CCCc2ccccc2)C(N)=O)cc1 (stereo partly drawn) [compound 92] (H-VHAQGT[ξαMePhe(2-F)]TSD[ξBip(2'-Et-4'-OMe)][ξαMe(hhPhe)]-NH2)	half-life	2
CCc1cc(OC)ccc1-c1ccc(CC(C)(NC(=O)[C@H](CC(=O)O)NC(=O)[C@H](CO)NC(=O)[C@@H](NC(=O)C(C)(Cc2c(F)cccc2F)NC(=O)[C@@H](NC(=O)CNC(=O)[C@H](CCC(N)=O)NC(=O)C2(C)CCCN2C(=O)[C@H](Cc2c[nH]cn2)NC(=O)[C@@H](N)C(C)C)[C@@H](C)O)[C@@H](C)O)C(=O)NC(CCCc2ccccc2)C(N)=O)cc1 (stereo partly drawn) [compound 28] (H-VH[ξαMeP]QGT[ξαMePhe(2,6-F2)]TSD[ξαMeBip(2'-Et,4'-OMe)][ξhhPhe]-NH2)	half-life	1

I would be grateful if you could provide half-life for each of the following entries.
1. CCc1cc(OC)ccc1-c1ccc(CC(NC(=O)[C@H](CC(=O)O)NC(=O)[C@H](CO)NC(=O)[C@@H](NC(=O)[C@H](Cc2ccccc2)NC(=O)[C@@H](NC(=O)CNC(=O)[C@H](CCC(N)=O)NC(=O)[C@H](CO)NC(=O)[C@H](Cc2c[nH]cn2)NC(=O)[C@@H](N)C(C)C)[C@@H](C)O)[C@@H](C)O)C(=O)NC(C)(CCCc2ccccc2)C(N)=O)cc1 (stereo partly drawn) [compound 81] (H-VHSQGTFTSD[ξBip(2'-Et-4'-OMe)][ξαMe(hhPhe)]-NH2)
2. CCc1cc(OC)ccc1-c1ccc(CC(C)(NC(=O)[C@H](CC(=O)O)NC(=O)C(C)(CO)NC(=O)[C@@H](NC(=O)C(C)(Cc2c(F)cccc2F)NC(=O)[C@@H](NC(=O)CNC(=O)[C@H](CCC(N)=O)NC(=O)[C@H](C)NC(=O)[C@H](Cc2c[nH]cn2)NC(=O)[C@@H](N)C(C)C)[C@@H](C)O)[C@@H](C)O)C(=O)NC(CCCc2ccccc2)C(N)=O)cc1 (stereo partly drawn) [compound 50] (H-VHAQGT[ξαMePhe(2,6-F2)]T[ξαMeS]D[ξαMeBip(2'-Et,4'-OMe)][ξhhPhe]-NH2)

1. 1
2. 0.5
